Just for reference, PubChem BioAssay (NCI) is where these values come from.

- Test system: NCI-H522 lung
- assay_notes: NCI-60 one-dose screen, 48 h (100 = growth as untreated, 0 = no growth, -100 = all killed)
- applied_conditions: 10 µM
This is part of a sample that, as a whole, favours compounds with a hit. Of some 83,000 tested, about 20% had one in any assay.
List of growth values.
quantity_kind: growth (%)

[[record]]
molecule = "COc1cc(-c2nn3c(/C=C4/C(=O)Nc5ccccc54)c(-c4ccc(C)cc4)nc3s2)cc(OC)c1OC"
unit_of_measure = "%"
observed_result = 58

[[record]]
molecule = "COc1ccc(-c2nn(-c3cccc(NC(=O)Nc4cc(C(F)(F)F)cc(C(F)(F)F)c4)c3)cc2-c2ccncc2)cc1Cl"
unit_of_measure = "%"
observed_result = -30

[[record]]
molecule = "O=C(O)CN1C(=O)c2cccc3cccc(c23)C1=O"
unit_of_measure = "%"
observed_result = 94.1

[[record]]
molecule = "COc1ccc(/C=C/C(C)=N/OCC(=O)O)cc1"
unit_of_measure = "%"
observed_result = 92.8

[[record]]
molecule = "COc1cccc(C2C3=C(COC3=O)N(CCO)c3cc(OC)ccc32)c1 (configuration not stated)"
unit_of_measure = "%"
observed_result = -34.8

[[record]]
molecule = "Cc1cc(N(CCCNc2ccnc3cc(Cl)ccc23)Cc2cccs2)nc(Cl)n1"
unit_of_measure = "%"
observed_result = 35.6

[[record]]
molecule = "Cc1cc(=O)[nH]c(N/N=C/c2ccccc2O)n1"
unit_of_measure = "%"
observed_result = 77.3

[[record]]
molecule = "CCCCCCCNc1nc(C=O)ncc1-c1ccc(C(F)(F)F)cc1"
unit_of_measure = "%"
observed_result = 80.1

[[record]]
molecule = "CCN(CC)CCN1CC(=O)Nc2cc(Cl)ccc21"
unit_of_measure = "%"
observed_result = 92.7

[[record]]
molecule = "COc1ccc(-c2nn(-c3cccc(NC(=O)Nc4ccccc4)c3)cc2-c2ccncc2)cc1Cl"
unit_of_measure = "%"
observed_result = 5.77

[[record]]
molecule = "CN(C)CC(O)c1ccc2cc(Br)c3ccccc3c2c1 (configuration not stated)"
unit_of_measure = "%"
observed_result = 65.6

[[record]]
molecule = "c1ccc(CP(Cc2ccccc2)c2ccccc2)cc1"
unit_of_measure = "%"
observed_result = 83.1

[[record]]
molecule = "ClC(Cl)(Cl)c1nc2nccnc2[nH]1"
unit_of_measure = "%"
observed_result = 95.4

[[record]]
molecule = "Cc1ccc(N=Nc2c(N)nc(N)[nH]c2=O)cc1C"
unit_of_measure = "%"
observed_result = 92.1

[[record]]
molecule = "COc1ccc(S(=O)(=O)NCCCNc2nccc(-c3c(-c4ccc(F)cc4)nc4sccn34)n2)cc1"
unit_of_measure = "%"
observed_result = 59.3

[[record]]
molecule = "CCCCCCNC(=O)Oc1ccc(/C(=C(/CC)Cc2ccccc2)c2ccc(OCCN3CCCCC3)cc2)cc1"
unit_of_measure = "%"
observed_result = 77.9

[[record]]
molecule = "Cc1nc2ccc(CN(C)c3ccc(C(=O)N[C@@H](CCC(=O)O)C(=O)O)s3)cc2c(=O)[nH]1"
unit_of_measure = "%"
observed_result = 71.9

[[record]]
molecule = "COc1cc(-c2cc(/C=C/C(=O)c3ccc(Cl)c(Cl)c3)[nH]n2)cc(OC)c1OC"
unit_of_measure = "%"
observed_result = 38

[[record]]
molecule = "O=C1OCC2=C1C(c1cccc(Cl)c1)c1cc3c(cc1N2CCO)OCCO3 (configuration not stated)"
unit_of_measure = "%"
observed_result = -22.4

[[record]]
molecule = "Clc1ccccc1N=Cc1ccc2c(c1)OCO2"
unit_of_measure = "%"
observed_result = 80.3

[[record]]
molecule = "CCOCC(=O)C(C#N)c1ccc(Cl)c(Cl)c1 (configuration not stated)"
unit_of_measure = "%"
observed_result = 94.4

[[record]]
molecule = "COc1ccc(Cl)cc1C(=O)Nc1nc2ccc(Cl)cc2s1"
unit_of_measure = "%"
observed_result = 99.4

